Below is a list of entries, each paired with its recorded koff value.
Target: SARS-CoV-2 nucleocapsid protein (N) (SARS-CoV-2, UniProt P0DTC9 1-419)
Test: BLI
Reply numerically in s⁻¹, unit not repeated.

# example entries with known answers
CCL28 (ligand) SEAILPIASSCCTEVSHHISRRLLERVNMCRIQRADGDCDLAAVILHVKRRRICVSPHNHTVKQWMKVQAAKKNGKGNVCHRKKHHGKRNSNRAHQGKHETYGHKTPY	0.00087
CCL26 (ligand) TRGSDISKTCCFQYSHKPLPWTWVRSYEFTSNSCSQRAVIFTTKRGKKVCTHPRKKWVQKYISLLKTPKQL	0.00093
CCL5 (ligand) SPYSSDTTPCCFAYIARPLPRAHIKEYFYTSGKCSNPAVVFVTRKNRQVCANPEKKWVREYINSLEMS	0.00019
CXCL11 (ligand) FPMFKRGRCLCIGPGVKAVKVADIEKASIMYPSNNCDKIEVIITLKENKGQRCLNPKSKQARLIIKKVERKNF	0.0033

Turning now to a further record.
Entry CXCL14 (ligand) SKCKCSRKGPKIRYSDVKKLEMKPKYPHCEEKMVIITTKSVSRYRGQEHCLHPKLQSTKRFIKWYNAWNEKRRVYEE has what koff?
0.0019
